Numbers sourced from ChEMBL document CHEMBL1800055.

Below, each entry is listed alongside its reported IC50.
Target: 72 kDa type IV collagenase (Homo sapiens, UniProt P08253)
Sequence (P08253 whole entry): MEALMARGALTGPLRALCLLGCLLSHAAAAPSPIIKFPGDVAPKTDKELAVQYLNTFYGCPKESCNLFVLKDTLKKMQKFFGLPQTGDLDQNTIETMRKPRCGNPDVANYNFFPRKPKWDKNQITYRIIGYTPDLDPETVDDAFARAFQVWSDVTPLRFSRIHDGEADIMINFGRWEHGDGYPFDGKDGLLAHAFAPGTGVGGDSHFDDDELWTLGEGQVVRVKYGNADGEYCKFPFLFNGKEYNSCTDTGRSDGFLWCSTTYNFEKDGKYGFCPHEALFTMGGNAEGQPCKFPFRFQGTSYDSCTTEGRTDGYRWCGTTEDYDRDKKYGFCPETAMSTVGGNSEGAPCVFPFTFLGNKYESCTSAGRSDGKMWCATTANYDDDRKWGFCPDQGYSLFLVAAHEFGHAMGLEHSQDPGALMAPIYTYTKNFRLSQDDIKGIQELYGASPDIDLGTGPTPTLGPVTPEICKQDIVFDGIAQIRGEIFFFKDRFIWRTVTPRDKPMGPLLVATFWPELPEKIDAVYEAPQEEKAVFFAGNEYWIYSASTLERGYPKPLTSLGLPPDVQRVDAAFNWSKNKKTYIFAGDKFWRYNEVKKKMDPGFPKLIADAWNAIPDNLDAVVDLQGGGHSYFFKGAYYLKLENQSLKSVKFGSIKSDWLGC
quantity.kind: IC50

* O=C(NO)C1(S(=O)(=O)c2ccc(Oc3ccc4c(c3)OCCO4)cc2)CCN(C2CC2)CC1 | 0.2 nM
* COCCN1CCC(C(=O)NO)(S(=O)(=O)c2ccc(Oc3ccc(OC(F)(F)F)cc3)cc2)CC1 | < 0.1 nM
* CCN1CCC(C(=O)NO)(S(=O)(=O)c2ccc(Oc3ccc(C(F)(F)F)cc3)cc2)CC1 | 0.2 nM
* O=C(NO)C1(S(=O)(=O)c2ccc(Oc3ccc(OC(F)(F)F)cc3)cc2)CCN(CCO)CC1 | < 0.1 nM
* O=C(NO)C1(S(=O)(=O)c2ccc(Oc3ccc(C(F)(F)F)cc3)cc2)CCNCC1 | 1.7 nM
* O=C(NO)C1(S(=O)(=O)c2ccc(Oc3ccc(SC(F)(F)F)cc3)cc2)CCOCC1 | 0.4 nM
* CC(C)N1CCC(C(=O)NO)(S(=O)(=O)c2ccc(Oc3ccc(C(F)(F)F)cc3)cc2)CC1 | 0.3 nM
* O=C(NO)C1(S(=O)(=O)c2ccc(Oc3ccc(OC(F)(F)F)cc3)cc2)CCN(Cc2cccnc2)CC1 | < 0.1 nM
* C#CCN1CCC(C(=O)NO)(S(=O)(=O)c2ccc(Oc3ccc(OC(F)(F)F)cc3)cc2)CC1 | < 0.1 nM
* COCCN1CCC(C(=O)NO)(S(=O)(=O)c2ccc(Oc3ccc(OC(C)C)cc3)cc2)CC1 | 0.3 nM
* O=C(NO)C1(S(=O)(=O)c2ccc(Oc3ccc(C(F)(F)F)cc3)cc2)CCN(CCN2CCOCC2)CC1 | 0.3 nM
